Where do these numbers come from? They come from ChEMBL document CHEMBL3621067.

Please go through the items and note down their IC50.
Test system: Liver
Assay: Antioxidant activity in rat heat-inactivated rat hepatic microsomes assessed as inhibition of TBAR level incubated for 45 mins by spectrophotometry
Format: functional
Settings: 0.75 h
One number for each entry, in µM.

Worked examples follow.
Exercise: Returns the measured IC50 for the input compound. Input: CC(C)(C)c1ccc(-c2ccc(C3(O)CN4CCCCC4CO3)cc2)cc1 (centres undefined)
Key: 410

Exercise: Next record, please: CN1CC(O)(c2ccc3c(ccc4ccccc43)c2)OC2CCCCC21 (centres undefined)
Key: 191

Here are 5 compounds. What values of IC50 were reported for them?
1. OC1(c2ccc3c(ccc4ccccc43)c2)CN2CCCCC2CO1 (centres undefined)
2. CN1CCOC(O)(c2ccc(-c3ccc([N+](=O)[O-])cc3)cc2)C1 (centres undefined)
3. CN1CCOC(O)(c2ccc(-c3ccc(C(C)(C)C)cc3)cc2)C1 (centres undefined)
4. O=[N+]([O-])c1ccc(-c2ccc(C3(O)CN4CCCCC4CO3)cc2)cc1 (centres undefined)
5. Oc1ccc(-c2ccc(C3(O)CN4CCCCC4CO3)cc2)cc1 (centres undefined)

Key:
[198, 73, 91, 539, 134]

// batch mode: one IC50 value per listed entry
1. OC1(c2ccc(-c3nccs3)cc2)CN2CCCCC2CO1 (centres undefined)
2. CN1CC(O)(c2ccc(C3CCCCC3)cc2)OC2CCCCC21 (centres undefined)

Key:
1: 1000; 2: 180

* * *

System: Rattus norvegicus
Assay: Antihyperlipidemic activity in Triton WR1339-induced hyperlipidemic rat assessed as reduction in plasma triglyceride level at 56 umol/kg, ip dosed 1 hr after Triton WR1339 challenge and measured 24 hrs post dose relative to control
Format: functional
reported-property: inhibition in vivo at 56 µmol/kg (%)
Answers are plain numbers, in %.

These recorded examples may help you get a feel for the data.
Exercise: Fill in the blank: the reported inhibition in vivo at 56 µmol/kg of CN1CCOC(O)(c2ccc(-c3ccc(C(C)(C)C)cc3)cc2)C1 (stereo unspecified) is ____.
Key: 47

Exercise: Same question for CN1CC(O)(c2ccc(-c3ccc([N+](=O)[O-])cc3)cc2)OC2CCCCC21 (stereo unspecified) please.
Key: 20

Exercise: Another compound: CN1CCOC(O)(c2ccc(-c3ccc([N+](=O)[O-])cc3)cc2)C1 (stereo unspecified)
Key: 44

Exercise: Okay, and CCC(C)(C)C(=O)O[C@H]1C[C@@H](C)C=C2C=C[C@H](C)[C@H](CC[C@@H]3C[C@@H](O)CC(=O)O3)[C@H]21 ?
Key: 0

Exercise: Try CN1CC(O)(c2ccc(-c3ccc(O)cc3)cc2)OC2CCCCC21 (stereo unspecified) next.
Key: 48

Look at each compound and report its inhibition in vivo at 56 µmol/kg.
1. OC1(c2ccc(-c3nccs3)cc2)CN2CCCCC2CO1 (stereo unspecified)
2. OC1(c2ccc3c(ccc4ccccc43)c2)CN2CCCCC2CO1 (stereo unspecified)
3. CN1CCOC(O)(c2ccc(C3CCCCC3)cc2)C1 (stereo unspecified)
4. CC(C)(C)c1ccc(-c2ccc(C3(O)CN4CCCCC4CO3)cc2)cc1 (stereo unspecified)
5. CN1CC(O)(c2ccc(-c3ccc(C(C)(C)C)cc3)cc2)OC2CCCCC21 (stereo unspecified)
6. CN1CCOC(O)(c2ccc3c(ccc4ccccc43)c2)C1 (stereo unspecified)
7. CN1CC(O)(c2ccc3c(ccc4ccccc43)c2)OC2CCCCC21 (stereo unspecified)

Key:
[58, 66, 34, 59, 15, 69, 59]

Parameter requested: inhibition in vivo at 56 µmol/kg. Apply to each item below.
1. CN1CC(O)(c2ccc(C3CCCCC3)cc2)OC2CCCCC21 (stereo unspecified)
2. OC1(c2ccc(C3CCCCC3)cc2)CN2CCCCC2CO1 (stereo unspecified)
3. O=[N+]([O-])c1ccc(-c2ccc(C3(O)CN4CCCCC4CO3)cc2)cc1 (stereo unspecified)
4. Oc1ccc(-c2ccc(C3(O)CN4CCCCC4CO3)cc2)cc1 (stereo unspecified)

Key:
[20, 70, 31, 43]

* * *

Biological target: UniProtKB Q02769
Assay: Inhibition of squalene synthase in rat liver microsomes assessed as reduction in conversion of [3H]farnesyl pyrophosphate to squalene at 10 uM […] by liquid scintillation counting method
Decide using inhibition: a value greater than or equal to 40% is met, a smaller one is not met.

Here are 4 compounds together with their reported answers.
Exercise: Decide: is the reported value of inhibition for CN1CCOC(O)(c2ccc(C3CCCCC3)cc2)C1 (stereo not drawn) equal to or greater than 40%?
Key: not met

Exercise: One more compound: CN1CC(O)(c2ccc(C3CCCCC3)cc2)OC2CCCCC21 (stereo not drawn)
Key: not met

Exercise: What do you have for CN1CCOC(O)(c2ccc(-c3ccc(C(C)(C)C)cc3)cc2)C1 (stereo not drawn) ?
Key: met

Exercise: Record: O=[N+]([O-])c1ccc(-c2ccc(C3(O)CN4CCCCC4CO3)cc2)cc1 (stereo not drawn)
Key: met

Next:
Exercise: Decide: inhibition of CN1CC(O)(c2ccc3c(ccc4ccccc43)c2)OC2CCCCC21 (stereo not drawn) >= 40%?
Key: met

Exercise: Also, CN1CC(O)(c2ccc(-c3ccc(C(C)(C)C)cc3)cc2)OC2CCCCC21 (stereo not drawn) please.
Key: met

Exercise: Do the same for CN1CC(O)(c2ccc(-c3ccc(O)cc3)cc2)OC2CCCCC21 (stereo not drawn) please
Key: met

Exercise: Follow-up item: Oc1ccc(-c2ccc(C3(O)CN4CCCCC4CO3)cc2)cc1 (stereo not drawn)
Key: not met

* * *

Target: Squalene synthase (Rattus norvegicus, UniProt Q02769)
reported-property: pIC50
Give bare numbers, as −log10 of the molar value.

Would you please look over these solved cases?
Exercise: Looking for the measured pIC50 of OC1(c2ccc(C3CCCCC3)cc2)CN2CCCCC2CO1 (centres undefined) , can you help?
Key: 4.10

Exercise: Now try CN1CCOC(O)(c2ccc3c(ccc4ccccc43)c2)C1 (centres undefined) .
Key: 5.06

# context switch: different compound, same pIC50
Exercise: Which pIC50 is reported for this compound? CN1CC(O)(c2ccc(C3CCCCC3)cc2)OC2CCCCC21 (centres undefined)
Key: 4.38

* * *

Biological target: Squalene synthase (Rattus norvegicus)
Sequence (whole entry): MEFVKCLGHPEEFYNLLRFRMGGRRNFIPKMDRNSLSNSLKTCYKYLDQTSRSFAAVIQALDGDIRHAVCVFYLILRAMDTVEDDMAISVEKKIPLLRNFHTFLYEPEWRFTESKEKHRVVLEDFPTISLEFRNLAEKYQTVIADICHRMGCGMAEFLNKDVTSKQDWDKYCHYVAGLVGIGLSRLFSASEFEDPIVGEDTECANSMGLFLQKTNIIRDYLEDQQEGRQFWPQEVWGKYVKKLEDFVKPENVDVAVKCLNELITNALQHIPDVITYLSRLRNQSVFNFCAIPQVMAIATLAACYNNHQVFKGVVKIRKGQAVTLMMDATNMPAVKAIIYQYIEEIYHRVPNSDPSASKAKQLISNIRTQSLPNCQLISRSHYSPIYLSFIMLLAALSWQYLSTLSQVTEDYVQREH
Assay: Inhibition of squalene synthase in rat liver microsomes assessed as reduction in conversion of [3H]farnesyl pyrophosphate to squalene at 10 uM […] by liquid scintillation counting method
Give measured inhibition for each item. Keep answers brief.
Give bare numbers, in %.

Exercise: Fill in the blank: the reported inhibition of OC1(c2ccc3c(ccc4ccccc43)c2)CN2CCCCC2CO1 (stereo not given) is ____.
Key: 87

Exercise: Record: OC1(c2ccc(C3CCCCC3)cc2)CN2CCCCC2CO1 (stereo not given)
Key: 9

Exercise: Note, next up: CN1CCOC(O)(c2ccc3c(ccc4ccccc43)c2)C1 (stereo not given)
Key: 48

Exercise: Same question for CC(C)(C)c1ccc(-c2ccc(C3(O)CN4CCCCC4CO3)cc2)cc1 (stereo not given) please.
Key: 40

Consider now this further compound.
Exercise: Data request, read-out inhibition, for CN1CCOC(O)(c2ccc(-c3ccc([N+](=O)[O-])cc3)cc2)C1 (stereo not given)
Key: 29
